- Tested on: Methicillin-resistant S. pneumoniae ATCC 700677
- measurement protocol: MIC, Gram-positive panel
- Type: cell-based
- conditions used: Streptococcus pneumoniae, ATCC700677; Methicillin-resistant S. pneumoniae ATCC 700677; read-out: MIC
# MIC listing for each entry below
Field format: number, assumed mg/L, no unit text.

Would you please look over these solved cases?
C=C1C(=O)O[C@H](c2ccc3ccccc3c2)[C@@H]1c1ccc2ccccc2c1	2
CC(=O)NC[C@H]1CN(c2ccc(N3CCOCC3)c(F)c2)C(=O)O1 [linezolid, reference compound]	2
C=C1C(=O)O[C@H](C2=CC=CCC2)[C@H]1c1cccc2ccccc12	1
C=C(C(=O)OC)C(c1ccc2ccccc2c1)C(O)c1cccc2ccccc12 (centres unmarked)	1
C=C(C(=O)OC)C(c1ccc2ccccc2c1)C(O)c1ccc2ccccc2c1 (centres unmarked)	4

[Q] Need MIC, item C=C1C(=O)O[C@H](c2cccc3ccccc23)[C@@H]1c1ccc2ccccc2c1
[A] 1

[Q] Entry to check: C=C1C(=O)O[C@H](c2ccccc2)[C@@H]1c1cccc2ccccc12
[A] 4

[Q] Proceed to C=C(C(=O)OC)C(c1cccc2ccccc12)C(O)c1ccccc1 (centres unmarked)
[A] 1

---

- System: VRSA 10
- measurement protocol: MIC, Gram-positive panel
- Assay type: cell-based
- conditions used: Staphylococcus aureus; VRSA 10; read-out: MIC
endpoint name: MIC (µg/mL)
Numeric answer only, unit µg/mL assumed.

[Q] Fill blank: measured MIC of the compound CC(=O)NC[C@H]1CN(c2ccc(N3CCOCC3)c(F)c2)C(=O)O1 [linezolid, reference compound] is ____.
[A] 1

---

- System: Staphylococcus aureus NRS384 (MRSA USA300)
- measurement protocol: Initial MIC screening, broth microdilution (CLSI)
- Assay type: cell-based
- conditions used: Staphylococcus aureus, Staphylococcus aureus NRS384 (MRSA USA300), broth microdilution, visual reading; read-out: MIC
- Description: Method: The minimum inhibitory concentration (MIC) of the compounds 1-187, and control antibiotics (vancomycin, linezolid) was determined using the broth microdilution method against methicillin-resistant Staphylococcus aureus (MRSA) USA 300 using the broth microdilution method according to the guidelines outlined by the Clinical and Laboratory Standards Institute (CLSI). MRSA strain was cultivated on Tryptic soy agar plates and let grow for 24 hours at 37° C. under aerobic conditions. […]
endpoint name: log10 MIC (log10 of the value in µg/mL)
Use the decimal logarithm of MIC (µg/mL).

C=C1C(=O)O[C@H](c2cccc(OC)c2)[C@@H]1c1ccc(C#N)cc1 [Compound 19]	1.81
C=C1C(=O)O[C@@H]2c3c(ccc4ccccc34)C(C)C[C@H]12 (stereo partly drawn) [Compound 94]	1.51
C=C1C(=O)O[C@H](c2ccc(OC)cc2)[C@@H]1c1ccccc1Br [Compound 78]	0.90
C=C1C(=O)O[C@H](c2ccccc2)[C@@H]1c1ccccc1Br [Compound 53]	0.60
COc1ccc([C@@H]2C(CN(C)C)C(=O)O[C@@H]2c2ccccc2)cc1 (stereo partly drawn) [Compound 17]	1.81

# evaluate next
[Q] Would you mind telling me what log10 MIC value was observed for C=C1C(=O)O[C@H](c2ccc(C)cc2)[C@@H]1c1ccc(C)cc1 [Compound 67] ?
[A] 1.81

---

- measurement protocol: In vitro cytotoxicity, MTS assay
- Type: cell-based, human
- conditions used: human, Caco-2 cells; Caco-2, two hours incubation, MTS; read-out: 50% cytotoxic concentration (CC50)
endpoint name: CC50 at 2 h

Example compounds with recorded CC50 at 2 h:
C=C(C(=O)OC)C(c1ccc2ccccc2c1)C(O)c1cccc2ccccc12 (stereo not drawn)	> 64 µg/mL
C=C1C(=O)O[C@H](c2ccccc2)[C@@H]1c1cccc2ccccc12	> 64 µg/mL

# evaluate next
[Q] I am curious: what CC50 at 2 h value has been reported for C=C1C(=O)O[C@H](c2ccc3ccccc3c2)[C@@H]1c1ccc2ccccc2c1 ?
[A] > 64 µg/mL
